System: HeLa cells KB3.1
Experiment: In vitro cytotoxicity, MTT assay
Format: cell-based
Details: Homo sapiens; MTT assay; HeLa cells KB3.1; starting concentration 66 μg/mL; read-out: IC50
pIC50: −log10 of the molar value.

| molecule | value relation sign | pIC50 |
| --- | --- | --- |
| Cc1ccc(C(=O)c2c(O)cccc2C(=O)O)c(O)c1 | < | 3.70 |
| COC(=O)C1(C2OC(=O)CC2C)CC(=O)c2c(O)cccc2O1 (centres unmarked) | < | 3.70 |
| C[C@H]1CC(O)=C2C(=O)c3c(ccc(-c4ccc(O)c5c4O[C@]4(C(=O)O)C(=C(O)C[C@H](C)[C@@H]4O)C5=O)c3O)O[C@@]2(C(=O)O)[C@H]1O | = | 4.76 |
| COC(=O)C1(C2OC(=O)CC2C)CC(=O)c2c(O)ccc(-c3ccc4c(c3O)C(=O)C3(O)C5(O)CC(C)C(O)C3(O4)C(=O)O5)c2O1 (centres unmarked) | = | 4.53 |
| C[C@H]1CC(O)=C2C(=O)c3c(O)ccc(-c4ccc(O)c5c4O[C@]4(C(=O)O)C(=C(O)C[C@H](C)[C@H]4O)C5=O)c3O[C@@]2(C(=O)O)[C@@H]1O | = | 5.41 |
